- method.description: Quantitative High-Throughput drug screen in 47 multiple myeloma cell lines against the NCATS MIPE library collection: MMM1_PLB cell viability assay (AID 1918976); also: nearly all actives have a fitted effect of over 35% in size
- study.conditions: MMM1 myeloma cells viability, CellTiter-Glo, 48 h; series mostly up to 45.8 µM
Records with an inconclusive call do not appear. The source made the active and inactive calls. Calls follow the shape of the dose curve; as a rule, active = well fitted cell-killing curve with a large enough effect; inconclusive = small, poorly fitted or top-dose-only effect, or effect the other way; inactive = no such curve, though single readings can be large or run the other way.
Could you please pick one outcome from this set? active, inactive

Consider the worked cases shown below.
CC[C@@H]1C(=O)N(C)c2cnc(Nc3ccc(C(=O)NC4CCC(N5CCN(CC6CC6)CC5)CC4)cc3OC)nc2N1C(C)C (stereo partly specified) :: active
O=C(NC1CCNCC1)c1[nH]ncc1NC(=O)c1c(Cl)cccc1Cl :: active
COCCn1c2c([n+](Cc3cnccn3)c1C)C(=O)c1ccccc1C2=O :: active
N#CCNC(=O)c1ccc(-c2ccnc(Nc3ccc(N4CCOCC4)cc3)n2)cc1 :: active
COC(=O)C1=C(C)NC(C)=C(C(=O)OCCN2CCN(C(c3ccccc3)c3ccccc3)CC2)C1c1cccc([N+](=O)[O-])c1 (stereo unspecified) :: inactive

Query: Outcome? c1ccc2c(CCNc3ccc(Nc4ccncc4)cc3)c[nH]c2c1
Result: active

Query: Given CN1CCC(CNc2ccc3ncc(-c4cccc(OC(F)(F)F)c4)n3n2)CC1 , state the outcome it received in this test.
Result: active

* * *

- method.description: Quantitative High-Throughput drug screen in 47 multiple myeloma cell lines against the NCATS MIPE library collection: OPM2_DSMZ cell viability assay (AID 1919872); also: nearly all actives have a fitted effect of over 30% in size
- study.conditions: OPM2 myeloma viability, CellTiter-Glo ATP luminescence, 48 h; series mostly up to 45.8 µM
Records with an inconclusive call do not appear. The source made the active and inactive calls. Calls come from the whole dose curve; as a rule, active = well fitted cell-killing curve with a large enough effect; inconclusive = small, poorly fitted or top-dose-only effect, or effect the other way; inactive = no such curve, though single readings can be large or run the other way.
Classes to choose from: label 1 (active), label 0 (inactive)

Reference set (2 entries):
Cc1nc2cnc3ccc(C#Cc4cccnc4)cc3c2n1-c1ccc(C(C)(C)C#N)cc1 :: label 1
COc1ccc2c(c1)CC[C@@H](CN(C)CC(=O)O)[C@H]2c1ccccc1 :: label 1

Query: Recorded test outcome, item O=C(O)Cn1nnc(-c2cc(N3CCC(Oc4cc(F)ccc4Br)CC3)no2)n1
Result: label 0

Query: For CN(c1ncccc1CNc1nc(Nc2ccc3c(c2)CC(=O)N3)ncc1C(F)(F)F)S(C)(=O)=O , which call appears in the assay record?
Result: label 1

Query: For CN(C)Cc1c(C(=O)NCCOc2ccc(C(=O)NO)cc2)oc2ccccc12 , what call appears in the results of this test?
Result: label 1

Query: How was Cc1[nH]c2ccccc2c1CCNCc1ccc(C=CC(=O)NO)cc1 classified in this test?
Result: label 1

* * *

Listing of entries alongside the reported parasite growth, % of control (lower = inhibition).
- method.description: qHTS profiling of the MIPE4 collection as inhibitors of Plasmodium falciparum (DD2) proliferation (Rep 2) (AID 743346)
- study.conditions: P. falciparum Dd2 in erythrocytes, SYBR Green DNA, 72 h; at 28.5 µM (top of the series) unless noted
Give just the number in %; leave the unit off.

Query: In one line, give reported parasite growth, % of control (lower = inhibition) of the entry Cc1ccc(NC(=O)C2(c3ccc4c(c3)OC(F)(F)O4)CC2)nc1-c1cccc(C(=O)O)c1 .
Result: 7.61

Query: Identify parasite growth, % of control (lower = inhibition) associated with the compound Cc1cc(Nc2cc(CN3CCOCC3)c3nc(C)c(Cc4ccc(Cl)cc4F)n3n2)n[nH]1
Result: 12.5

Query: For the compound O=C(O)c1ccc2c(c1)nc(Nc1cccc(Cl)c1)c1ccncc12 , report parasite growth, % of control (lower = inhibition).
Result: 9.96

Query: Look up parasite growth, % of control (lower = inhibition) of CCOc1cc2ncc(C#N)c(Nc3ccc(F)c(Cl)c3)c2cc1NC(=O)C=CCN(C)C and report it.
Result: 9.55

* * *

- method.description: qHTS of pediatric cancer cell lines to identify multiple opportunities for drug repurposing: Primary screen for Rh30 cells (AID 1347107); also: nearly all actives have a fitted effect of over 75% in size
- study.conditions: Rh30 rhabdomyosarcoma viability, CellTiter-Glo luminescence, 48 h; series mostly up to 46 µM
Results filed as inconclusive are left out. Calls of active or inactive are those of the source. The call rests on the fitted dose curve; in most records, active means well fitted cell-killing curve with a large enough effect; inconclusive means small, poorly fitted or top-dose-only effect; inactive means no such curve, though single readings can be large or run the other way.
Can you answer with just one of these options? 1 (yes) = active, 0 (no) = inactive

Known results for compounds:
C=CC(=O)Nc1cc2c(Nc3ccc(F)c(Cl)c3)ncnc2cc1OCCCN1CCOCC1 :: 1 (yes)
C[C@@H](Oc1cc(-c2cnn(C3CCNCC3)c2)cnc1N)c1c(Cl)ccc(F)c1Cl :: 1 (yes)
CC(C)C[C@H](NC(=O)CNC(=O)c1cc(Cl)ccc1Cl)B(O)O :: 1 (yes)
COc1c(N2C[C@@H]3CCCN[C@H]3C2)c(F)cc2c(=O)c(C(=O)O)cn(C3CC3)c12 :: 0 (no)

Query: Any idea what this test logged for Cc1nc2cnc3ccc(C#Cc4cccnc4)cc3c2n1-c1ccc(C(C)(C)C#N)cc1 ?
Result: 1 (yes)

Query: Given COc1ccc2c(c1)CC[C@@H](CN(C)CC(=O)O)[C@H]2c1ccccc1 , state the outcome it received in this test.
Result: 0 (no)

Query: Could you please tell me the result logged for CC=C1NC(=O)[C@H]2CSSCCC=C[C@H](CC(=O)N[C@H](C(C)C)C(=O)N2)OC(=O)[C@H](C(C)C)NC1=O in this assay?
Result: 1 (yes)

Query: Outcome? CCCCN1CCC(CNC(=O)c2c3n(c4ccccc24)CCCO3)CC1
Result: 0 (no)

Query: Outcome logged for Nc1ccc(S(=O)(=O)Nc2ncccn2)cc1 in this assay:
Result: 0 (no)

Query: Any idea what this test logged for O=c1c2ccccc2nc2n1CCc1c-2[nH]c2ccccc12 ?
Result: 0 (no)

Query: What is the recorded call for this compound in the test? Cc1nc2ccc(CN(C)c3ccc(C(=O)N[C@@H](CCC(=O)O)C(=O)O)s3)cc2c(=O)[nH]1
Result: 0 (no)

Query: Status in this test for C[C@@]12O[C@@H](C[C@]1(O)CO)n1c3ccccc3c3c4c(c5c6ccccc6n2c5c31)CNC4=O ?
Result: 0 (no)

* * *

- method.description: qHTS drug screen for cell cycle checkpoint inhibitors in PARPi-resistant BRCA-mutant ovarian cancer cell lines. (AID 1963452)
- study.conditions: PEO1/OlaR viability, CellTiter-Glo luminescence, 96 h; measured here: PEO4 Z-AUC; stronger effect = lower value
property.label: Z-AUC
Output: the number by itself.

Examples from the recorded data:
CC[C@@]1(O)C(=O)OCc2c1cc1n(c2=O)Cc2cc3cc(O)ccc3nc2-1 :: -2.58
COc1ccc(C(=O)CC2(O)C(=O)Nc3c(Cl)ccc(Cl)c32)cc1 (stereo not drawn) :: -0.085

Query: Indicate its recorded Z-AUC; the compound in question is NC(=O)c1c(OCc2c(F)cc(Br)cc2F)nsc1NC(=O)NCCCCN1CCCC1
Result: 0.754

* * *

parasite growth remaining, % of DMSO control (lower = more inhibition) values, listed per item
- method.description: qHTS profiling of the MIPE4 collection as inhibitors of Plasmodium falciparum (DD2) proliferation (AID 743345)
- study.conditions: P. falciparum Dd2 in erythrocytes, SYBR Green DNA, 72 h; at 28.5 µM (top of the series) unless noted
Please state the figure in %; there is no need to write the unit.

Field: example entries. Status: answers known.
C[C@@H]1COC(Nc2ccc3ncnc(Nc4ccc(OCc5nccs5)c(Cl)c4)c3c2)=N1 :: 11.5
C[C@@H]1CN(CC(=O)Nc2ccc3c(c2)Cc2cccc(-c4cc(=O)cc(N5CCOCC5)o4)c2S3)C[C@H](C)O1 :: 20.9

Query: Look up and state reported parasite growth remaining, % of DMSO control (lower = more inhibition) for CC(C)=CCCC(C)=CCCC(C)=CCSc1ccccc1C(=O)O
Result: 25.3

* * *

- method.description: Quantitative High-Throughput drug screen in 47 multiple myeloma cell lines against the NCATS MIPE library collection: OCIMY1_PLB cell viability assay (AID 1918979); also: nearly all actives have a fitted effect of over 35% in size;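 as to viability: 100% = DMSO-only wells and 0% = cell-free media-only wells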
- study.conditions: OCI-MY1 myeloma viability, CellTiter-Glo ATP, 48 h; series mostly up to 45.8 µM
- Excerpt: PI: Beverly A. Mock Ph.D. Laboratory of Cancer Biology and Genetics, Center for Cancer Research, National Cancer Institute, National Institute of Health, Bethesda, Maryland […] 5; Detector; 425V; Luminescence; Viewlux PerkinElmer. […] 1. […] Briefly, the corresponding myeloma cell lines were screened in 1,536-well plates with 500 cells, 5-uL per well for inhibition of cell viability (assessed by measuring ATP levels with CellTiterGlo). […]
Records with an inconclusive call do not appear. Calls of active or inactive are those of the source. The call rests on the fitted dose curve; in most records, active means well fitted cell-killing curve with a large enough effect; inconclusive means small, poorly fitted or top-dose-only effect, or effect the other way; inactive means no such curve, though single readings can be large or run the other way.
Form entry, call: pick from true (1) for active, false (0) for inactive

COc1cc2c(NC3CCN(C(C)C)CC3)nc(C3CCCCC3)nc2cc1OCCCN1CCCC1 :: true (1)
C[C@@]12O[C@@H](C[C@]1(O)CO)n1c3ccccc3c3c4c(c5c6ccccc6n2c5c31)CNC4=O :: true (1)

Query: Given C=CC(=O)Nc1cccc(Oc2nc(Nc3ccc(N4CCN(C)CC4)cc3OC)ncc2Cl)c1 , state the outcome it received in this test.
Result: true (1)

Query: Name the outcome recorded for CCOc1cc2ncc(C#N)c(Nc3ccc(F)c(Cl)c3)c2cc1NC(=O)C=CCN(C)C in the assay.
Result: true (1)

Query: Could you check what this test reported for Nc1nc(-c2nn(Cc3ccccc3F)c3ncccc23)nc(N)c1N1CCOCC1 ?
Result: false (0)

Query: Record request — test call for Cc1cnc(Nc2ccc(F)cc2Cl)nc1-c1c[nH]c(C(=O)N[C@H](CO)c2cccc(Cl)c2)c1
Result: true (1)

Query: Answer briefly: the call reported for Nc1ccccc1NC(=O)c1ccc(CNC(=O)OCc2cccnc2)cc1 in this assay.
Result: true (1)

Query: Per the assay record, what outcome was assigned to CNC(=O)c1ccc(-c2cnc3ncc(Cc4ccc5ncccc5c4)n3n2)cc1F ?
Result: false (0)

These measurements were taken from PubChem BioAssay (NCATS).
